molecular target: FKBP12 (Homo sapiens, UniProt P62942); assay: K1 test procedure: inhibition of peptidyl-prolyl isomerase (rotamase) activity of FKBP12, chymotrypsin-coupled assay; assay type: biochemical; conditions: apparent Ki, rotamase inhibition; Table XLI, Formulas I to XIV; read-out: Ki
Sequence (P62942 whole entry, species assumed): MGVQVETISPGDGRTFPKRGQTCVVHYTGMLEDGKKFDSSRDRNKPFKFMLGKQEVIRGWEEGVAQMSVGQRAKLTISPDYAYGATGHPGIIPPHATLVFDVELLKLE
recorded_endpoint: Ki

Please list Ki recorded for the compound CCC(C)(C)C(=O)C(=O)N1CCC[C@H]1C(=O)SCCCc1cccc2ccccc12
21 nM

Please list Ki recorded for the compound CCC(C)(C)C(=O)C(=O)N1CCC[C@H]1C(=O)OCCCc1ccc[n+]([O-])c1
225 nM

Please list Ki recorded for the compound O=C(C(=O)N1CCC[C@H]1C(=O)SCCCCc1ccccc1)C1CCCCC1
1700 nM

###

target: FKBP12 (Homo sapiens); assay: K1 test procedure: inhibition of peptidyl-prolyl isomerase (rotamase) activity of FKBP12, chymotrypsin-coupled assay; assay type: biochemical; conditions: relative potency ranking; Table XLII, Formulas XV to XXIV; read-out: Ki
What Ki was measured for each of the following?

Please list Ki recorded for the compound COc1ccc(CCCSC(=O)[C@@H]2CCCN2S(=O)(=O)Cc2ccccc2)cc1
51 to 200 nM

Please list Ki recorded for the compound CCC(C)(C)NC(=S)N1CCCC1C(=O)SCCCc1cccnc1 (stereo not drawn)
1 to 50 nM

Please list Ki recorded for the compound COc1ccc(CCCSC(=O)C2CCCN2C(=S)NC2CCCCC2)cc1 (stereo not drawn)
51 to 200 nM

Please list Ki recorded for the compound CCC(C)CNC(=O)N1CCC[C@H]1C(=O)SCCCc1cccnc1 (stereo partly drawn)
1 to 50 nM

Please list Ki recorded for the compound COc1ccc(CCCSC(=O)[C@@H]2CCCN2S(=O)(=O)c2ccccc2)cc1
51 to 200 nM

Please list Ki recorded for the compound CCC(C)(C)NC(=O)N1CCC[C@H]1C(=O)SCCCc1cccnc1
51 to 200 nM

Please list Ki recorded for the compound COc1ccc(CCCSC(=O)[C@@H]2CCCN2S(=O)(=O)c2ccc(C)cc2)cc1
201 to 500 nM

Please list Ki recorded for the compound CCC(C)(C)NC(=O)N1CCCC1C(=O)SCCC(c1ccccc1)c1ccccc1 (stereo not drawn)
1 to 50 nM

Please list Ki recorded for the compound O=C(SC(CCc1ccccc1)CCc1ccccc1)C1CCCCN1C(=O)NC1CCCCC1 (stereo not drawn)
1 to 50 nM

###

What pKi was measured for each of the following?
Target: FKBP12 (Homo sapiens, UniProt P62942)
Assay: K1 test procedure: inhibition of peptidyl-prolyl isomerase (rotamase) activity of FKBP12, chymotrypsin-coupled assay
Assay type: biochemical
Conditions: apparent Ki, rotamase inhibition; Table XLIII, Formulas XXV to XXIX; read-out: K1
Description: The inhibition of the prolyl peptidyl cis-trans isomerase activity of FKBP may be measured as an indicator of this affinity. The cis-trans isomerization of an alanine-proline bond in a model substrate, N-succinyl-Ala-Ala-Pro-Phe-p-nitroanilide, is monitored spectrophotometrically in a chymotrypsin-coupled assay, which releases paranitroanilide from the trans form of the substrate. […]
pKi is defined as minus the log10 of a concentration measured in mol/L.

Please list pKi recorded for the compound CC1(C)COC(=O)CCCCCCCCCCCOC(=O)[C@@H]2CCCCN2C(=O)C1=O [compound 186]
6.82

Please list pKi recorded for the compound CCC(C)(C)C(=O)C(=O)N1CCC[C@H]1C(=O)OC/C=C/c1cc(OC)ccc1OC [compound 151]
6.35
